system: Thyrotropin receptor (Homo sapiens)
protocolSummary: qHTS Assay for Agonists of the Thyroid Stimulating Hormone Receptor;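 further: the control signal comes from parental cells without the receptor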; on activation: % of control where 0% means no effect
conditionParameters: HEK293-CNG-TSHR cells, membrane potential dye, cAMP; series mostly up to 57.1 µM
Description: NIH Chemical Genomics Center [NCGC] NIH Molecular Libraries Screening Centers Network [MLSCN] PI Name: Dr. Marvin Gershengorn, NIH Thyroid Stimulating Hormone Receptor […] High Throughput Screening. […] 23 nl/well compound or control was then added to the assay plates, which were incubated for additional 30 min before reading a Envision fluorescence plate reader (Perkin Elmer) in bottom-read mode for fluorescence intensity (emission at 590 nm). […]
Out of some 73,000 compounds screened, about 350 (0.48%) were called active. Inconclusive results (about 17%) are left out. What follows is part of a selection rich in actives, with near analogues and random picks from the rest.
observationType: activation

CC(=O)N1[C@H](C)C=C[C@]1(Cc1ccccc1)C(=O)NCc1ccccn1
inactive
CO/N=C\[C@@H](C)[C@H](OCc1ccccc1)C(C)C
16.8% [at 11.4 µM] (inactive)
CC(C)N(CCNC(=O)c1ccc(-n2c(=O)c(=O)[nH]c3ccccc32)cc1)C(C)C
inactive
CN1CCN(Cc2c(O)ccc3c2oc(=O)c2ccccc23)CC1
inactive
COC(=O)[C@@]1(C)C=C[C@@H](Cc2ccccc2)N1C(C)=O
inactive
O=C(O)c1cc(S(=O)(=O)N2CCCCCC2)c(Cl)cc1Cl
12.9% [at 11.4 µM] (inactive)
CNC(=O)c1c(NC(=O)c2ccc(S(=O)(=O)N3CCOCC3)cc2)sc2c1CCC2
inactive
CCCCNc1nc2c(c(=O)[nH]c(=O)n2C)n1CCOc1ccccc1
inactive
CCCC(Cl)CCCC(Cl)CCC(Cl)CCC(Cl)CCC(Cl)CCCC(Cl)CCC (stereo not given)
inactive
COc1ccc(S(=O)(=O)Nc2ccc(S(=O)(=O)N3CCCCC3)cc2)cc1OC
inactive

---

system: Thyrotropin receptor (Homo sapiens) (UniProt P16473)
Sequence (P16473 whole entry, looked up): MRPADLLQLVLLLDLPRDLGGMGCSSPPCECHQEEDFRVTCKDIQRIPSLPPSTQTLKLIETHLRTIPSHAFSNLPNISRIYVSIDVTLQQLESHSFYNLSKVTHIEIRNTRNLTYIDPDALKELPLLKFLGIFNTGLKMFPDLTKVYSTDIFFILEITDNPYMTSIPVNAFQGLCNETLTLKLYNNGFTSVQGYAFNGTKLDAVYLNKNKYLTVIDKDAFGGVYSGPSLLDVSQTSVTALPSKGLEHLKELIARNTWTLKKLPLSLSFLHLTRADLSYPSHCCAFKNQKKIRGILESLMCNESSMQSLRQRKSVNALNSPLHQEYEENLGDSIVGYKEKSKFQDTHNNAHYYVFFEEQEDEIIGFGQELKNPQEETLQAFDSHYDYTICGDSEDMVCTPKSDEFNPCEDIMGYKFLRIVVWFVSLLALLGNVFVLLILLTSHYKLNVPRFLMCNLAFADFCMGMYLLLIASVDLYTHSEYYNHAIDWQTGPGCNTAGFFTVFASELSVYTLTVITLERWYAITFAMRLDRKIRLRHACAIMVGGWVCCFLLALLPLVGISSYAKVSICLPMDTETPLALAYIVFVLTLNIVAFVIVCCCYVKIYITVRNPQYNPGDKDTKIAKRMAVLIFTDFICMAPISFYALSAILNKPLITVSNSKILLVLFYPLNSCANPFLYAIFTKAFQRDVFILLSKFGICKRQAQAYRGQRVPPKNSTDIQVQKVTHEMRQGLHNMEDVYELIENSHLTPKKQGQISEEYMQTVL
protocolSummary: qHTS Assay for Agonists of the Thyroid Stimulating Hormone Receptor;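 further: the control signal comes from parental cells without the receptor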; on activation: % of control where 0% means no effect
conditionParameters: HEK293-CNG-TSHR cells, membrane potential dye, cAMP; series mostly up to 57.1 µM
About 350 (0.48%) of roughly 73,000 compounds were called active. About 17% were inconclusive and are not listed. The list comes from a sample in which actives are over-represented; it also holds close analogues and randomly drawn compounds.
observationType: activation

CC(C)[C@@H](OCc1ccccc1)[C@H](C)/C=N\OC[C@@H](C)[C@H](OCc1ccccc1)C(C)C
1.85% [at 11.4 µM] (inactive)
COc1ccc(C[C@H](N)C(=O)N[C@@H]2[C@H](O)[C@H](n3cnc4c(N(C)C)ncnc43)O[C@@H]2CO)cc1
inactive
O=C(O)[C@@H](O)Cc1ccccn1
-3.52% [at 11.4 µM] (inactive)
CCOc1ccccc1Oc1cn[nH]c1-c1ccc(OC)cc1O
inactive
COc1ccc(OC)c(Nc2nc(-c3ccc(O)c(O)c3)cs2)c1
inactive
COC(=O)[C@@]1(Cc2ccc(F)cc2)[C@H]2c3cc(C(=O)N(C)C)n(CCc4c[nH]c5ccc(OC)cc45)c3C[C@H]2CN1C(=O)c1ccccc1
inactive

---

protocolSummary: qHTS Assay for Agonists of the Thyroid Stimulating Hormone Receptor;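 further: the control signal comes from parental cells without the receptor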; on activation: % of control where 0% means no effect
conditionParameters: HEK293-CNG-TSHR cells, membrane potential dye, cAMP; measured here: parental cells max response
Among all 73,000 compounds or so, about 350 (0.48%) were called active. Inconclusive results (about 17%) are left out. Many of the other results were omitted from the sample, so actives are more common in it than they were.
observationType: activation (%)

COc1cc(Cl)c(S(=O)(=O)n2cnc(C)c2)cc1Cl
12.1
CN1CCCc2cc(C#N)c(=O)[nH]c21
7.1
CO[C@H]1COC(=O)[C@H](Cc2ccccc2)NC(=O)C/C=C\[C@@H](C)[C@H](OC)COC(=O)C/C=C\[C@@H]1C
25.1
COc1ccc2c(c1)C=CC1(O2)N(CCO)c2ccccc2C1(C)C (stereo unspecified)
16.4
O=C(CCCn1c(=O)oc2ccccc21)Nc1cccnc1
-4.73
CC(=O)Nc1cc2ccc(OC(C)=O)cc2oc1=O
-10.5
CC(C)N(CCNC(=O)c1ccc(-n2c(=O)c(=O)[nH]c3ccccc32)cc1)C(C)C
-3.64
Cc1cccc(Br)c1
15
CN1CCN(Cc2c(O)ccc3c2oc(=O)c2ccccc23)CC1
13.2
CC(C)(C)c1ccc(OC2C=CC(C#Cc3ccccc3)OC2CO)cc1 (stereo unspecified)
12.6
C=CCOC(=O)COCCC(C)C
1.07

---

system: Thyrotropin receptor (Homo sapiens) (UniProt P16473)
protocolSummary: qHTS Assay for Agonists of the Thyroid Stimulating Hormone Receptor;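 further: the control signal comes from parental cells without the receptor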; on activation: % of control where 0% means no effect
conditionParameters: HEK293-CNG-TSHR cells, membrane potential dye, cAMP; series mostly up to 57.1 µM
The whole screen tested about 73,000 compounds, of which about 350 (0.48%) were called active. About 17% were inconclusive and are not listed. The list comes from a sample in which actives are over-represented; it also holds close analogues and randomly drawn compounds.
observationType: activation

CCCC[C@@H]1C[C@H]1C(NC(=O)c1ccc(-c2ccccc2)cc1)c1ccc(-c2ccccc2)cc1 (some centres not stated)
inactive
CC1CCCCN1CCCNC(=O)c1ccc(-n2c(=O)c(=O)[nH]c3ccccc32)cc1 (configuration not stated)
inactive
CCn1c(COc2ccc(OC)cc2)nnc1SCC(=O)Nc1cc(OC)ccc1OC
inactive
CCc1cc(=O)oc2cc(C)cc(OC(C)C(=O)O)c12 (configuration not stated)
inactive
Cc1ccc(NC(=O)N2CCC(C(=O)NCc3ccc(F)cc3)CC2)cc1
inactive
COc1ccc(O)c(C=Nc2cc(C)on2)c1
inactive
COc1cc(Cl)c(S(=O)(=O)n2cnc(C)c2)cc1Cl
13.5% [at 11.4 µM] (inactive)
CCCNC(=O)OC[C@@H]1O[C@H](c2ccccc2)C=C[C@@H]1Oc1ccc(OC)cc1
1.94% [at 11.4 µM] (inactive)
O=C(CCCn1c(=O)oc2ccccc21)Nc1cccnc1
inactive
C[C@H]1CC[C@H](C(=O)O)N[C@@H]1c1ccc(C#Cc2ccccc2)cc1
0.128% [at 11.4 µM] (inactive)
c1ccc(Nc2n[nH]nc2-c2ccccc2)cc1
inactive
O=C(Cl)c1ccccc1[N+](=O)[O-]
inactive
COC(=O)[C@@]1(Cc2ccc(F)cc2)[C@@H]2[C@@H](CC(=O)[C@H]2CC(=O)C(=O)N2CCCC2)CN1C(=O)c1ccccc1
inactive
COc1ccc(COC(=O)N/N=C2/C[C@@H](O)[C@@H](O)[C@@H]3[C@@H]4C(=O)N([C@@H](C)c5ccccc5)C(=O)[C@H]4CC[C@@H]23)cc1
0.427% [at 11.4 µM] (inactive)
Cc1ccc2oc(=O)c3cnn(CC(=O)N4CCN(c5ccccn5)CC4)c3c2c1
inactive
CC(c1ccccc1)n1c(NCCCn2ccnc2)nc2c1c(=O)[nH]c(=O)n2C (configuration not stated)
inactive
O=C(Cl)c1ccc([N+](=O)[O-])cc1
inactive
CO[C@H]1COC(=O)CCC[C@@H](C)[C@H](OC)COC(=O)[C@@H](C)NC(=O)C/C=C\[C@@H]1C
0.571% [at 11.4 µM] (inactive)
Cc1nc2cnc(N3CCNCC3)nc2n(CCc2ccccc2)c1=O
inactive
COc1ccc(/C=C/NC(=O)c2ccc(OC)cc2)cc1
-7.55% [at 11.4 µM] (inactive)
O=C1OC(NC(=O)c2ccccc2)C(N2CCOCC2)=C1Cl (configuration not stated)
inactive
CCC1C(C#N)=C(SC)NC2=C1C(=O)CC(C)(C)C2 (configuration not stated)
4.61% [at 11.4 µM] (inactive)

---

Quick list: Potency per entry.
system: Thyrotropin receptor (Homo sapiens) (UniProt P16473)
protocolSummary: qHTS Assay for Agonists of the Thyroid Stimulating Hormone Receptor; further: potency means the concentration at half of the fitted maximal effect;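 further: the control signal comes from parental cells without the receptor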
conditionParameters: HEK293-CNG-TSHR cells (CNG channel as cAMP sensor), membrane potential dye, cAMP; series mostly up to 57.1 µM
The campaign covered roughly 73,000 compounds. About 350 (0.48%) were called active. About 17% were inconclusive and are not listed. The sample holds actives, similar compounds and a random draw of the others, so the mix is not that of the screen.
observationType: Potency

O=C(COC(=O)C12CC3CC(CC(C3)C1)C2)NCc1ccco1
0.794 µM (active)
CC(C)(C)c1ccc(NC(=O)NCc2ccco2)cc1
3.98 µM (active)
O=P(c1cccs1)(c1cccs1)c1cccs1
0.631 µM (active)
O=C(CN(Cc1ccccc1)C(=O)c1ccc2c(c1)OCCO2)NCc1ccc2c(c1)OCO2
7.94 µM (active)
COc1ccc2c(c1)C=CC1(O2)N(CCO)c2ccccc2C1(C)C (stereo not drawn)
15.8 µM (active)
O=C(CN1C(=O)NC2(CCCCC2)C1=O)NCCC1=CCCCC1
12.6 µM (active)
COc1ccc(C2SCCN2S(=O)(=O)c2ccccc2)cc1OC (stereo not drawn)
31.6 µM (active)
COc1ccc(-c2n[nH]c(C)c2-c2ccc(OC)c(OC)c2)c(O)c1
5.01 µM (active)
